# Tested on: angiotensin I (AI) challenge
# METHOD NOTES: A1 Challenge Assay
# Format: in vivo, male Sprague-Dawley rats
# CONDITION NOTES: dose 30 sc
ASSAY ENDPOINT: A1 Chall. (% inhibition)
Put your answer as a value accompanied by its unit after it.

What does the data say about its A1 Chall. (% inhibition)? Entry: COC(=O)N[C@@H](CCCCN)C(=O)NC[C@H](CC1(C(=O)N[C@@H](Cc2ccc(O)cc2)C(=O)O)CCCC1)C(=O)O [NH2 C(O) CH3 O]
92%

Then COC(=O)N[C@@H](CCCCNC(=O)OCc1ccccc1)C(=O)NC[C@H](CC1(C(=O)N[C@@H](Cc2ccc(O)cc2)C(=O)O)CCCC1)C(=O)O [CbzNH C(O) CH3 O] ?
49%

Now consider CN(C)C(=O)N[C@@H](CCCCNC(=O)OCc1ccccc1)C(=O)NC[C@H](CC1(C(=O)N[C@@H](Cc2ccc(O)cc2)C(=O)O)CCCC1)C(=O)O [CbzNH C(O) (CH3)2 NH] .
88%

Try this molecule next: CS(=O)(=O)N(CCCN)CC(=O)NC[C@H](CC1(C(=O)N[C@@H](Cc2ccc(O)cc2)C(=O)O)CCCC1)C(=O)O [NH2 SO2 CH3]
81%
